system: PDL1; assay: PDL1 Jurkat-NFAT Reporter Assay; type: cell-based; settings: Homo sapiens; Hep3B-OS8-hPDL1 with Jurkat-NFAT-PD1 cells, 6 hours, luciferase
pEC50: −log10 of the molar value.
Assay Metric: pEC50

**Q:** For the compound Cn1c(CNC[C@@H]2CCC(=O)N2)cn2cc(-c3cccc(-c4cccc(-c5cc6c(=O)n(C)c(CNC[C@@H]7CCC(=O)N7)cn6c5)c4Cl)c3Cl)cc2c1=O [Compound 74] , give its measured pEC50 value.
**A:** ≤ 6.30

**Q:** For the compound O=C1CC[C@@H](Cn2cnn3cc(-c4cccc(-c5cccc(-c6cc7c(=O)n(C[C@@H]8CCC(=O)N8)cnn7c6)c5Cl)c4Cl)cc3c2=O)N1 [Compound 1] , give its measured pEC50 value.
**A:** > 6.30
